CC50 overview
# EXPERIMENT_NOTES: Neurotoxicity against human neuroblastoma SH-SY5Y cells using MTT dye conversion assay
READOUT: CC50

{"COMPOUND": "COc1ccc2c(c1)C(C)NCC2 (stereo not drawn)", "REPORTED_RESULT": "1390 µM"}
{"COMPOUND": "CC1NCCc2c(O)cccc21 (stereo not drawn)", "REPORTED_RESULT": "3380 µM"}
{"COMPOUND": "CC1NCCc2ccc(O)cc21 (stereo not drawn)", "REPORTED_RESULT": "4150 µM"}
{"COMPOUND": "CC1NCCc2cc(O)c(O)cc21 (stereo not drawn)", "REPORTED_RESULT": "34 µM"}
{"COMPOUND": "COc1cc2c(cc1OC)C(C)NCC2 (stereo not drawn)", "REPORTED_RESULT": "2730 µM"}
{"COMPOUND": "COc1cccc2c1CCNC2C (stereo not drawn)", "REPORTED_RESULT": "2450 µM"}
{"COMPOUND": "CC1NCCc2cc(O)ccc21 (stereo not drawn)", "REPORTED_RESULT": "3630 µM"}
{"COMPOUND": "COc1ccc2c(c1)CCNC2C (stereo not drawn)", "REPORTED_RESULT": "2790 µM"}
